Data origin: patent US20230406840A1

# protocol details: Metabolic stability in human liver microsomes (HLM)
# Format: in vitro ADME
measured parameter: microsomal CLint (µL/min/mg)

Reference set (4 entries):
| molecule | unit string | microsomal CLint |
| --- | --- | --- |
| Cc1ccc2nc(C)cc(C(=O)NCC(=O)N3[C@H](C#N)C[C@@H]4C[C@@H]43)c2c1 | µL/min/mg | 12 |
| N#C[C@@H]1C[C@@H]2C[C@@H]2N1C(=O)CNC(=O)c1ccnc2ccc(C3(C#N)CC3)cc12 | µL/min/mg | 20 |
| Cc1ccc2c(C(=O)NCC(=O)N3[C@H](C#N)C[C@@H]4C[C@@H]43)cc(C)nc2c1 | µL/min/mg | 6.2 |
| COC(C)c1ccc2c(C(=O)NCC(=O)N3[C@H](C#N)C[C@@H]4C[C@@H]43)ccnc2c1 (stereo partly drawn) | µL/min/mg | 21 |

a. N#C[C@@H]1C[C@@H]2C[C@@H]2N1C(=O)CNC(=O)c1ccnc2ccc(Br)cc12
b. N#C[C@@H]1C[C@@H]2C[C@@H]2N1C(=O)CNC(=O)c1ccnc2cc(C3(C(F)(F)F)CC3)ccc12
c. N#C[C@@H]1C[C@@H]2C[C@@H]2N1C(=O)CNC(=O)c1ccnc2ccc(C(F)(F)F)cc12
Highest microsomal CLint first, then in falling order down to the smallest. Write out the labels following the order that was asked for. b, c, a

a. N#C[C@@H]1C[C@@H]2C[C@@H]2N1C(=O)CNC(=O)c1ccnc2cc(C(F)(F)F)ccc12
b. CCOC1(c2ccc3c(C(=O)NCC(=O)N4[C@H](C#N)C[C@@H]5C[C@@H]54)ccnc3c2)CC1
c. N#C[C@@H]1C[C@@H]2C[C@@H]2N1C(=O)CNC(=O)c1ccnc2ccc(OC3CCC(F)(F)CC3)cc12
Rank items: key microsomal CLint, increasing. Write out the labels following the order that was asked for. a, b, c
(a: 9.9 µL/min/mg, b: 77 µL/min/mg, c: 190 µL/min/mg)

###

# measured target: FAP Mouse Plasma (Mus musculus (Mouse), UniProt P97321)
# Sequence (P97321 24-761 limits assumed): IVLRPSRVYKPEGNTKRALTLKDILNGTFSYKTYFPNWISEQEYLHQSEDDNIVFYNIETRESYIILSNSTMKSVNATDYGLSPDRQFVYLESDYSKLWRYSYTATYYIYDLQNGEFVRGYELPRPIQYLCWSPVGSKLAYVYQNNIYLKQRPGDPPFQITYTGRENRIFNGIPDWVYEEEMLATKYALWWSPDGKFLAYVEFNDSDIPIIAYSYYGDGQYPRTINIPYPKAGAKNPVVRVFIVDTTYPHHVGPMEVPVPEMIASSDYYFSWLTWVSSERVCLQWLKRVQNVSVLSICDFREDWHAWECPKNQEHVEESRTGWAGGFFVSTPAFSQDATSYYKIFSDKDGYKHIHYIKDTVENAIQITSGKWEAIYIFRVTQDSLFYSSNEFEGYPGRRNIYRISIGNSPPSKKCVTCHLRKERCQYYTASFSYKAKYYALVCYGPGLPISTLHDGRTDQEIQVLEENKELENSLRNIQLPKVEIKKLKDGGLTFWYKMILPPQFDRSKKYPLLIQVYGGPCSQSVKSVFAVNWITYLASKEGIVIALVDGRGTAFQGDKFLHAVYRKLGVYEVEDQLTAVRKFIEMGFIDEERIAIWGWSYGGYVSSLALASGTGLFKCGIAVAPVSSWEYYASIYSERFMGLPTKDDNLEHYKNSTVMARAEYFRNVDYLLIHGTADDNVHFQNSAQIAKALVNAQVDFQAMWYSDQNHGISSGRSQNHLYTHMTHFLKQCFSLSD
# protocol details: FAP plasma inhibition assay, mouse plasma
# condition parameters: mouse plasma dilution 1:67, Ala-Pro-AMC 75 μM; n = 1
measured parameter: IC50 (nM)

| test smiles | measured target | unit string | IC50 |
| --- | --- | --- | --- |
| N#C[C@@H]1C[C@@H]2C[C@@H]2N1C(=O)CNC(=O)c1ccnc2cc(C(F)(F)F)ccc12 | FAP Mouse Plasma (Mus musculus (Mouse), UniProt P97321) | nM | 1.9 |

P. Cc1ccc2c(C(=O)NCC(=O)N3[C@H](C#N)C[C@@H]4C[C@@H]43)ccnc2c1
Q. N#C[C@@H]1C[C@@H]2C[C@@H]2N1C(=O)CNC(=O)c1ccnc2cc(Cl)ccc12
R. N#C[C@@H]1C[C@@H]2C[C@@H]2N1C(=O)CNC(=O)c1ccnc2ccc(C(F)(F)F)cc12
S. Cc1ccc2nccc(C(=O)NCC(=O)N3[C@H](C#N)C[C@@H]4C[C@@H]43)c2c1
Highest IC50 first, then in falling order down to the smallest. Write out the labels following the order that was asked for. R, Q, S, P

A. N#C[C@@H]1C[C@@H]2C[C@@H]2N1C(=O)CNC(=O)c1ccnc2ccc(Br)cc12
B. COc1ccc2c(C(=O)NCC(=O)N3[C@H](C#N)C[C@@H]4C[C@@H]43)cc(C)nc2c1
So which one has the bigger IC50 here, A or B ? Refer to your chosen entry by its label in the reply. B

I. N#C[C@@H]1C[C@@H]2C[C@@H]2N1C(=O)CNC(=O)c1ccnc2cc(C3(C#N)CC3)ccc12
II. N#C[C@@H]1C[C@@H]2C[C@@H]2N1C(=O)CNC(=O)c1ccnc2cc(Br)ccc12
So which one has the bigger IC50 here, I or II ? Refer to your chosen entry by its label in the reply. II

###

# measured target: Prolyl Oligopeptidase (hPREP) (Homo sapiens (Human), UniProt P48147)
# Sequence (P48147 whole entry): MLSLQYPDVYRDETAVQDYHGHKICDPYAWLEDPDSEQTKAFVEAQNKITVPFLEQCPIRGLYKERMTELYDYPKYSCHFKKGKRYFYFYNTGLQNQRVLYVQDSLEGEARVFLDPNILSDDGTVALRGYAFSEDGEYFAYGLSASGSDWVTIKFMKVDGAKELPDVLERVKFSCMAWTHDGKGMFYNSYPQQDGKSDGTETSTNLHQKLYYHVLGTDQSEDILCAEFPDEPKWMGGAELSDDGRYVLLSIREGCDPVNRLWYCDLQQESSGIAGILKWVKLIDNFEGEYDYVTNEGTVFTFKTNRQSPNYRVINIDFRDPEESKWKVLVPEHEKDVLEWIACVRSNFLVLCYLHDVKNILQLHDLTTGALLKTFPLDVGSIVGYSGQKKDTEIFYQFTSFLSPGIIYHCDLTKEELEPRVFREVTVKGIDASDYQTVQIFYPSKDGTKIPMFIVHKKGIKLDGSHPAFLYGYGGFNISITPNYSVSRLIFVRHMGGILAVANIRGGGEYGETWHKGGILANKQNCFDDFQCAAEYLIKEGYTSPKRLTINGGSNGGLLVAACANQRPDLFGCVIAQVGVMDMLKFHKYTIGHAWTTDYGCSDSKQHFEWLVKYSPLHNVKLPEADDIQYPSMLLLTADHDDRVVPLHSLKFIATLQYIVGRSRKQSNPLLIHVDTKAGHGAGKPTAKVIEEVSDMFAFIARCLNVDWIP
# protocol details: hPREP inhibition assay
# Format: biochemical
# condition parameters: hPREP 0.6 nM, Z-Gly-Pro-amino-methylcoumarin 50 μM; read-out: PREP IC50
This section presents compounds with their documented IC50 values.

Reference set (3 entries):
| compound | IC50 |
| --- | --- |
| N#C[C@@H]1C[C@@H]2C[C@@H]2N1C(=O)CNC(=O)c1ccnc2cc(Cl)ccc12 | > 50 µM |
| COC(C)c1ccc2c(C(=O)NCC(=O)N3[C@H](C#N)C[C@@H]4C[C@@H]43)ccnc2c1 (stereo partly drawn) | > 50 µM |
| Cc1cc(C(=O)NCC(=O)N2[C@H](C#N)C[C@@H]3C[C@@H]32)c2cc(Br)ccc2n1 | 13 µM |

// fetch IC50 given entry N#C[C@@H]1C[C@@H]2C[C@@H]2N1C(=O)CNC(=O)c1ccnc2cc(C(F)(F)F)ccc12 12 µM

// fetch IC50 given entry CC(O)c1ccc2nccc(C(=O)NCC(=O)N3[C@H](C#N)C[C@@H]4C[C@@H]43)c2c1 (stereo partly drawn) > 50 µM

// fetch IC50 given entry CC1(c2ccc3nccc(C(=O)NCC(=O)N4[C@H](C#N)C[C@@H]5C[C@@H]54)c3c2)CC1 > 50 µM

// fetch IC50 given entry CCOC1(c2ccc3c(C(=O)NCC(=O)N4[C@H](C#N)C[C@@H]5C[C@@H]54)ccnc3c2)CC1 > 50 µM

// fetch IC50 given entry CCc1ccc2nc(C)cc(C(=O)NCC(=O)N3[C@H](C#N)C[C@@H]4C[C@@H]43)c2c1 > 50 µM

// fetch IC50 given entry N#C[C@@H]1C[C@@H]2C[C@@H]2N1C(=O)CNC(=O)c1ccnc2cc(Br)ccc12 > 50 µM

###

# protocol details: Kinetic solubility
# Assay type: physicochemical
# condition parameters: kinetic from dmso stock
measured parameter: solubility (µM)

| compound | measured parameter | experimental result |
| --- | --- | --- |
| CCOC1(c2ccc3c(C(=O)NCC(=O)N4[C@H](C#N)C[C@@H]5C[C@@H]54)ccnc3c2)CC1 | solubility | 960 |
| CC(O)c1ccc2c(C(=O)NCC(=O)N3[C@H](C#N)C[C@@H]4C[C@@H]43)ccnc2c1 (stereo partly shown) | solubility | 960 |

P. N#C[C@@H]1C[C@@H]2C[C@@H]2N1C(=O)CNC(=O)c1ccnc2ccc(OCC(F)(F)F)cc12
Q. N#C[C@@H]1C[C@@H]2C[C@@H]2N1C(=O)CNC(=O)c1ccnc2ccc(COC(F)(F)F)cc12
So which one has the bigger solubility here, P or Q ? Refer to your chosen entry by its label in the reply. P
(P: 700 µM, Q: 340 µM)

###

# protocol details: Metabolic stability in human liver microsomes (HLM)
# Format: in vitro ADME
measured parameter: microsomal CLint (µL/min/mg)

| compound | measured parameter | experimental result |
| --- | --- | --- |
| CC1(c2ccc3c(C(=O)NCC(=O)N4[C@H](C#N)C[C@@H]5C[C@@H]54)ccnc3c2)CC1 [Example 32] | microsomal CLint | 46 |

I. COC(C)(C)c1ccc2c(C(=O)NCC(=O)N3[C@H](C#N)C[C@@H]4C[C@@H]43)ccnc2c1 [Example 28]
II. COC(C)(C)c1ccc2nccc(C(=O)NCC(=O)N3[C@H](C#N)C[C@@H]4C[C@@H]43)c2c1 [Example 16]
III. CC1(c2ccc3nccc(C(=O)NCC(=O)N4[C@H](C#N)C[C@@H]5C[C@@H]54)c3c2)CC1 [Example 43]
Rank items: key microsomal CLint, increasing. Write out the labels following the order that was asked for. I, II, III
(I: 36 µL/min/mg, II: 72 µL/min/mg, III: 260 µL/min/mg)

###

# measured target: human Fibroblast activation protein alpha (hFAP) (Homo sapiens (Human), UniProt Q12884)
# Sequence (Q12884 38-760): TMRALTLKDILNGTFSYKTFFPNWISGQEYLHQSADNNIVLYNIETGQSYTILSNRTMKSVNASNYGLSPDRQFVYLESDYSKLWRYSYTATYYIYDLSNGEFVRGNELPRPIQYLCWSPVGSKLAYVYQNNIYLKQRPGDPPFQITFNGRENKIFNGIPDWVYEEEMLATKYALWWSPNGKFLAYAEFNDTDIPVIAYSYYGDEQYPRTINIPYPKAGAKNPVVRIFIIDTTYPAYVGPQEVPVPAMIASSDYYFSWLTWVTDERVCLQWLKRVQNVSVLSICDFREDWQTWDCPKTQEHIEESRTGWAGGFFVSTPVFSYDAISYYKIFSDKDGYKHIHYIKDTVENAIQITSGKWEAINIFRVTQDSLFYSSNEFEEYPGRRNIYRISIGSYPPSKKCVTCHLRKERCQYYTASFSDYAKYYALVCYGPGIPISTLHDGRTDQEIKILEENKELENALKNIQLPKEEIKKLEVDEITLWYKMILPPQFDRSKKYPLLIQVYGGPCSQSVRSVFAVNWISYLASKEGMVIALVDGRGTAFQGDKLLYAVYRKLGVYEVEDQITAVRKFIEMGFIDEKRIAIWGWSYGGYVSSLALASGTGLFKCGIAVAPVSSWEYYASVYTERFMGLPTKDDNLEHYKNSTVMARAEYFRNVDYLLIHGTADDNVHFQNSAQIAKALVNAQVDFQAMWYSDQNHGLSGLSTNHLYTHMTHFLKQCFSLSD
measured parameter: IC50 (pM)

1. CC(C)(O)c1ccc2c(C(=O)NCC(=O)N3[C@H](C#N)C[C@@H]4C[C@@H]43)ccnc2c1 [Example 26]
2. N#C[C@@H]1C[C@@H]2C[C@@H]2N1C(=O)CNC(=O)c1ccnc2ccc(OCC3CC3)cc12 [Example 35]
So which one has the bigger IC50 here, 1 or 2 ? Refer to your chosen entry by its label in the reply. 1

###

# Tested on: Rat Hepatocytes (rHep)
# protocol details: Metabolic stability in rat hepatocytes (rHep)
# Type: in vitro ADME
# Method: Metabolic stability in rat hepatocytes was measured as described in J Comput Aided Mol Des 2015, 29, 795.
measured parameter: rHeps CLint (μL/min/1E6)

1. N#C[C@@H]1C[C@@H]2C[C@@H]2N1C(=O)CNC(=O)c1ccnc2ccc(CF)cc12
2. CC1(c2ccc3c(C(=O)NCC(=O)N4[C@H](C#N)C[C@@H]5C[C@@H]54)ccnc3c2)CC1
Hi there, can you help? I need to know whether 1 or 2 has lower measured rHeps CLint. Refer to your chosen entry by its label in the reply. 1
(1: 5.3 μL/min/1E6, 2: 72 μL/min/1E6)

I. Cc1cc(C(=O)NCC(=O)N2[C@H](C#N)C[C@@H]3C[C@@H]32)c2ccc(F)cc2n1
II. CC(C)(F)c1ccc2nccc(C(=O)NCC(=O)N3[C@H](C#N)C[C@@H]4C[C@@H]43)c2c1
Hi there, can you help? I need to know whether I or II has lower measured rHeps CLint. Refer to your chosen entry by its label in the reply. I
(I: 1.3 μL/min/1E6, II: 20 μL/min/1E6)

1. Cc1ccc2c(C(=O)NCC(=O)N3[C@H](C#N)C[C@@H]4C[C@@H]43)cc(C)nc2c1
2. CC(C)Oc1ccc2nccc(C(=O)NCC(=O)N3[C@H](C#N)C[C@@H]4C[C@@H]43)c2c1
So which one has the bigger rHeps CLint here, 1 or 2 ? Refer to your chosen entry by its label in the reply. 2
